I'd appreciate it if you could supply TGI values for the items below.
# Tested on: CCRF-CEM leukemia
# METHOD_SUMMARY: NCI tumour cell line growth inhibition, 48 h

*Q* For Cc1ccc2ccc3ccc(C)nc3c2n1 , what is its reported TGI?
*A* > 100 µM

*Q* For CCOC(=O)c1c(-c2ccccc2)nc2c(OC)nccn12 , what is its reported TGI?
*A* > 100 µM

*Q* For COc1ccc2c(c1)/C(=C\c1c(Cl)n(C)c3ccccc13)C(=O)N2 , what is its reported TGI?
*A* > 100 µM

*Q* For N#C/C(C(=S)Nc1ccccc1)=C(/N)N1CCCC1 , what is its reported TGI?
*A* > 100 µM

*Q* For CCn1c(-c2nonc2N)nc2cncc(C(=O)NCCNC)c21 , what is its reported TGI?
*A* > 25 µM

*Q* For CCCC(=O)NC(C(=O)OCC)(N1CCOCC1)C(F)(F)F (stereo unspecified) , what is its reported TGI?
*A* > 100 µM
